Parameter IC50, tested on Cyclin-dependent kinase 6 (Homo sapiens, UniProt Q00534), listed per item.
Sequence (Q00534 whole entry): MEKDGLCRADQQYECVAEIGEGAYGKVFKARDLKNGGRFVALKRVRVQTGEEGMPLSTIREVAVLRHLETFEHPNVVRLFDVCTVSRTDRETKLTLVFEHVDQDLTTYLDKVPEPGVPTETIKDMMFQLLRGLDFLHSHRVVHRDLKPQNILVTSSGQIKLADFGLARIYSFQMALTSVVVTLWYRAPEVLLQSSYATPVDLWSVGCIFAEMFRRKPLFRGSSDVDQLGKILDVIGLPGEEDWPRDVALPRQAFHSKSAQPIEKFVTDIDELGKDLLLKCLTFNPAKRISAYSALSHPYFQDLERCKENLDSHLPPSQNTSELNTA

The examples below pair each entry with its known result.
>  <smiles-input>
Cc1nc(Nc2c[nH]nc2C(=O)Nc2ccc(N3CCNCC3)cc2)c2ccsc2n1

>  <IC50>
84.3 nM

$$$$
>  <smiles-input>
CN1CCN(Cc2ccc(NC(=O)c3n[nH]cc3Nc3ncnc4sccc34)cc2)CC1

>  <IC50>
3.33 nM

$$$$

Now for another entry.
# IC50 measured on Cyclin-dependent kinase 6 (Homo sapiens, UniProt Q00534) for item `Cc1nc(Nc2c[nH]nc2C(=O)Nc2ccc(CN3CCN(C)CC3)cc2)c2cc(C(C)C)sc2n1` = 19.2 nM

---

# measured-target: Receptor-type tyrosine-protein kinase FLT3 (Homo sapiens, UniProt P36888)
# assay-details: Inhibition of human FLT3 Y591-V592 mutant by Hotspot assay
value-kind: IC50 (nM)
Respond numerically; units are nM and should not be typed.

>  <smiles-input>
Cc1nc2c(c(Nc3c[nH]nc3C(=O)Nc3ccc(N4CCNCC4)cc3)n1)CCC2

>  <unit>
nM

>  <IC50>
15.3

$$$$

Now for another entry.
IC50 recorded for this molecule, `CN1CCN(Cc2ccc(NC(=O)c3n[nH]cc3Nc3ncnc4sccc34)cc2)CC1` , is 13.2

---

Entries annotated with measured activity at 0.123 µM
# measured-target: CDK2 (cyclin-dependent kinase 2) (Homo sapiens)
# assay-details: Inhibition of CDK2 (unknown origin) assessed as residual activity at 0.123 uM by Hotspot assay relative to control
# test-settings: CDK2 enzyme (unknown origin), read-out: Activity
Respond numerically; units are % and should not be typed.

activity at 0.123 µM recorded for this compound, `Cc1[nH]nc(C(=O)Nc2ccc(CN3CCN(C)CC3)cc2)c1Nc1ncnc2sccc12` , is 99.7

activity at 0.123 µM recorded for this compound, `CN1CCN(Cc2ccc(NC(=O)c3nn(C)cc3Nc3ncnc4[nH]ccc34)cc2)CC1` , is 98.5

activity at 0.123 µM recorded for this compound, `Cc1[nH]nc(C(=O)Nc2ccc(CN3CCN(C)CC3)cc2)c1Nc1ncnc2[nH]ccc12` , is 99.9

activity at 0.123 µM recorded for this compound, `Cc1nc(Nc2c[nH]nc2C(=O)Nc2ccc(N3CCN(C)CC3)cc2)c2ccsc2n1` , is 71.2

activity at 0.123 µM recorded for this compound, `CN1CCN(Cc2ccc(NC(=O)c3n[nH]cc3Nc3nc(C4CC4)nc4sccc34)cc2)CC1` , is 89.8

activity at 0.123 µM recorded for this compound, `Cc1nc(Nc2c[nH]nc2C(=O)Nc2ccc(CN3CCOCC3)cc2)c2ccsc2n1` , is 52

activity at 0.123 µM recorded for this compound, `CC(C)(C)c1nc(Nc2c[nH]nc2C(=O)Nc2ccc(N3CCNCC3)cc2)c2ccsc2n1` , is 100

activity at 0.123 µM recorded for this compound, `Cc1nc(Nc2c[nH]nc2C(=O)Nc2ccc(N3CCOCC3)cc2)c2ccsc2n1` , is 78.8

---

Parameter pIC50, tested on UniProt:P24941, listed per item.
Scale note: pIC50 = -log10(concentration in M).

>  <smiles-input>
Cc1nc(Nc2c[nH]nc2C(=O)Nc2ccc(CN3CCN(C)CC3)cc2)c2cc(C(C)C)sc2n1

>  <readout-number>
7.67

$$$$

Now for another entry.
# pIC50 measured on UniProt:P24941 for item `Cc1nc(Nc2c[nH]nc2C(=O)Nc2ccc(N3CCNCC3)cc2)c2ccsc2n1` = 7.09

---

# measured-target: Vascular endothelial growth factor receptor 2 (Homo sapiens, UniProt P35968)
# Sequence (P35968 whole entry): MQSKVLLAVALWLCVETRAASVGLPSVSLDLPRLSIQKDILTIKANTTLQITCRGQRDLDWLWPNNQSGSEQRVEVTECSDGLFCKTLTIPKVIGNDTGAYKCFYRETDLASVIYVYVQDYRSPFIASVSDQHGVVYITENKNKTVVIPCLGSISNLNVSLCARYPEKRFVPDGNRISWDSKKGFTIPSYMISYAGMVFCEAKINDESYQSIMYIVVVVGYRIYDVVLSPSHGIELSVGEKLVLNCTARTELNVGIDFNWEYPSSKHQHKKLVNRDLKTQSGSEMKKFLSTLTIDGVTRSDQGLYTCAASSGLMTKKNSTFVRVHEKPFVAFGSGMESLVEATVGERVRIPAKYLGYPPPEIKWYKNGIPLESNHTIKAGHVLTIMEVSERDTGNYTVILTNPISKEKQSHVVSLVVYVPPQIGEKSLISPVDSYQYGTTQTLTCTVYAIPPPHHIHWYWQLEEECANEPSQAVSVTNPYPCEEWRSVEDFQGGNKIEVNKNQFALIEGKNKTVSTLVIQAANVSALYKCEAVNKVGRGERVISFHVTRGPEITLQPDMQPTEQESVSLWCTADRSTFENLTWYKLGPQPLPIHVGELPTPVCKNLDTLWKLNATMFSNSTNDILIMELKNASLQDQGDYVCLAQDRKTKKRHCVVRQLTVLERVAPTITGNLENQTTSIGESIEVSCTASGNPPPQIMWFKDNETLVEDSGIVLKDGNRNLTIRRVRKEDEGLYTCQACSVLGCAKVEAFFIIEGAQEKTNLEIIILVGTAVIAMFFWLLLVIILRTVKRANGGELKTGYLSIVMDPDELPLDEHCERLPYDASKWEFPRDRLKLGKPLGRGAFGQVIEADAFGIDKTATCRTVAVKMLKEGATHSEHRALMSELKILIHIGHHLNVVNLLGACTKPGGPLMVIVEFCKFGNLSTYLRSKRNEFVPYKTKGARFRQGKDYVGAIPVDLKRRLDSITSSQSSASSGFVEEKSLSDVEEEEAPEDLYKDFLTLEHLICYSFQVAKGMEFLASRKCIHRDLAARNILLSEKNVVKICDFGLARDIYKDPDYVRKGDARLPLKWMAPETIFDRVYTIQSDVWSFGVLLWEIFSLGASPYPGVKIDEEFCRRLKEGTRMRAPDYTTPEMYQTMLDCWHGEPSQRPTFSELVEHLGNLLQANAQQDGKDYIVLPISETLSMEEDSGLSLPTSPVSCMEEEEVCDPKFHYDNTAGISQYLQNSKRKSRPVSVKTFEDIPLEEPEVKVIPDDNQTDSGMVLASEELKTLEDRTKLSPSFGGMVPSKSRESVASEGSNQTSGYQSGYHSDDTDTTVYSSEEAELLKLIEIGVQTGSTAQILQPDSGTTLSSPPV
value-kind: pIC50
Scale note: pIC50 = -log10(concentration in M).

# pIC50 measured on Vascular endothelial growth factor receptor 2 (Homo sapiens, UniProt P35968) for item `Cc1nc2c(c(Nc3c[nH]nc3C(=O)Nc3ccc(N4CCNCC4)cc3)n1)CCC2` = 7.02

---

# measured-target: Cyclin-dependent kinase 6 (Homo sapiens, UniProt Q00534)
# assay-details: Inhibition of CDK6 (unknown origin) assessed as residual activity at 0.123 uM by Hotspot assay relative to control
Exam item: assign true (1) to entries whose Activity is below 90% and false (0) to entries at or above 90%. Note that a value of exactly 90% receives false (0).

State whether 90% exceeds Activity recorded for `Cc1nc(Nc2c[nH]nc2C(=O)Nc2ccc(CN3CCN(C)CC3)cc2)c2ccsc2n1` .
true (1)

State whether 90% exceeds Activity recorded for `Cc1[nH]nc(C(=O)Nc2ccc(CN3CCN(C)CC3)cc2)c1Nc1ncnc2[nH]ccc12` .
false (0)

State whether 90% exceeds Activity recorded for `Cc1nc2c(c(Nc3c[nH]nc3C(=O)Nc3ccc(N4CCNCC4)cc3)n1)CCCC2` .
true (1)

State whether 90% exceeds Activity recorded for `O=C(Nc1ccc(CN2CCOCC2)cc1)c1n[nH]cc1Nc1nc(C2CC2)nc2sccc12` .
false (0)

State whether 90% exceeds Activity recorded for `Cc1nc(Nc2c[nH]nc2C(=O)Nc2ccc(N3CCN(C)CC3)cc2)c2ccsc2n1` .
true (1)

State whether 90% exceeds Activity recorded for `CN1CCN(Cc2ccc(NC(=O)c3n[nH]cc3Nc3nc(C4CC4)nc4sccc34)cc2)CC1` .
false (0)

State whether 90% exceeds Activity recorded for `CN1CCN(Cc2ccc(NC(=O)c3nn(C)cc3Nc3ncnc4[nH]ccc34)cc2)CC1` .
false (0)

---

Entries annotated with measured IC50
# measured-target: Receptor-type tyrosine-protein kinase FLT3 (Homo sapiens, UniProt P36888, ITD)
# assay-details: Inhibition of human FLT3 ITD-NPOS mutant by Hotspot assay
Respond numerically; units are nM and should not be typed.

>  <smiles-input>
Cc1nc2c(c(Nc3c[nH]nc3C(=O)Nc3ccc(N4CCNCC4)cc3)n1)CCC2

>  <readout-number>
14.9

$$$$

IC50 recorded for this molecule, `CN1CCN(Cc2ccc(NC(=O)c3n[nH]cc3Nc3ncnc4sccc34)cc2)CC1` , is 17.5

---

# measured-target: Receptor-type tyrosine-protein kinase FLT3 (Homo sapiens)
# assay-details: Inhibition of human FLT3 F594_R595insREY mutant by Hotspot assay
value-kind: IC50 (nM)
Respond numerically; units are nM and should not be typed.

>  <smiles-input>
CN1CCN(Cc2ccc(NC(=O)c3n[nH]cc3Nc3ncnc4sccc34)cc2)CC1

>  <unit>
nM

>  <IC50>
7.35

$$$$

Now for another entry.
IC50 recorded for this compound, `Cc1nc2c(c(Nc3c[nH]nc3C(=O)Nc3ccc(N4CCNCC4)cc3)n1)CCC2` , is 9.15

---

# measured-target: UniProtKB P17948
# Sequence (P17948 whole entry): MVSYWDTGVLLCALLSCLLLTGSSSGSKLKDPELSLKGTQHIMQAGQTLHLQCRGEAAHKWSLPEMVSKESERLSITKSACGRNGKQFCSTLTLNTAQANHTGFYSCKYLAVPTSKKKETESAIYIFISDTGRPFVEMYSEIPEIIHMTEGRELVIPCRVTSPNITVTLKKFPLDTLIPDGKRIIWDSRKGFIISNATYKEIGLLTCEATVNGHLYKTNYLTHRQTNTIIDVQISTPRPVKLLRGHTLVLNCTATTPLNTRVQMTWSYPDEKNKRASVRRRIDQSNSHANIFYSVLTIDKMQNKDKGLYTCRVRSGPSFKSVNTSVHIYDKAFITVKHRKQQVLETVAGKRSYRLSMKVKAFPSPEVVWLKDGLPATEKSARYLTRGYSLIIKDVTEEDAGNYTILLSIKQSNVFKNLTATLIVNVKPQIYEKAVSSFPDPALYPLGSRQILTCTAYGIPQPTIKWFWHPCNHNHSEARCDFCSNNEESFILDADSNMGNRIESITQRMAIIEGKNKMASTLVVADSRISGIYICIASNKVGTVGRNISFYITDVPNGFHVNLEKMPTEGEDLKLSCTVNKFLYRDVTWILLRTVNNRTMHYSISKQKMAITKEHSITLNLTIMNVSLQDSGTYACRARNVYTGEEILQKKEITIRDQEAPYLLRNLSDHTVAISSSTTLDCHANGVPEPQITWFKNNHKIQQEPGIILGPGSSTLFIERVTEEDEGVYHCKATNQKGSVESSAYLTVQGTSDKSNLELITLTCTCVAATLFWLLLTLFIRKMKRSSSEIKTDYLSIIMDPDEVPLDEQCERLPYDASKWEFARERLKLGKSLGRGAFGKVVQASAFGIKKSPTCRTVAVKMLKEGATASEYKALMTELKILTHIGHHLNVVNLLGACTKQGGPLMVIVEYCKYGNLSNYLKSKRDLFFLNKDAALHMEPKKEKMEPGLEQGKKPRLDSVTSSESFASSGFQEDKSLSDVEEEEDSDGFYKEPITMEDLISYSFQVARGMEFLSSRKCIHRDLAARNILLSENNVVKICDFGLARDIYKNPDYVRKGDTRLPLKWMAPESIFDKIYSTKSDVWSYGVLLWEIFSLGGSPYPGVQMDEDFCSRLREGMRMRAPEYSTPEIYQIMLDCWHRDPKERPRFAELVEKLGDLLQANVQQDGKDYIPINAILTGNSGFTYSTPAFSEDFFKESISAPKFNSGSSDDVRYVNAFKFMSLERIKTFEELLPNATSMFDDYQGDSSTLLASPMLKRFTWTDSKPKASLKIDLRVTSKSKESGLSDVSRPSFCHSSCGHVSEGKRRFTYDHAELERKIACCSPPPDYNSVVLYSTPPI
# assay-details: Inhibition of human FLT1 by Hotspot assay
value-kind: IC50 (µM)
Respond numerically; units are µM and should not be typed.

IC50 recorded for this molecule, `Cc1nc2c(c(Nc3c[nH]nc3C(=O)Nc3ccc(N4CCNCC4)cc3)n1)CCC2` , is 0.22

---

# measured-target: Receptor-type tyrosine-protein kinase FLT3 (Homo sapiens)
# Sequence (P36888 whole entry): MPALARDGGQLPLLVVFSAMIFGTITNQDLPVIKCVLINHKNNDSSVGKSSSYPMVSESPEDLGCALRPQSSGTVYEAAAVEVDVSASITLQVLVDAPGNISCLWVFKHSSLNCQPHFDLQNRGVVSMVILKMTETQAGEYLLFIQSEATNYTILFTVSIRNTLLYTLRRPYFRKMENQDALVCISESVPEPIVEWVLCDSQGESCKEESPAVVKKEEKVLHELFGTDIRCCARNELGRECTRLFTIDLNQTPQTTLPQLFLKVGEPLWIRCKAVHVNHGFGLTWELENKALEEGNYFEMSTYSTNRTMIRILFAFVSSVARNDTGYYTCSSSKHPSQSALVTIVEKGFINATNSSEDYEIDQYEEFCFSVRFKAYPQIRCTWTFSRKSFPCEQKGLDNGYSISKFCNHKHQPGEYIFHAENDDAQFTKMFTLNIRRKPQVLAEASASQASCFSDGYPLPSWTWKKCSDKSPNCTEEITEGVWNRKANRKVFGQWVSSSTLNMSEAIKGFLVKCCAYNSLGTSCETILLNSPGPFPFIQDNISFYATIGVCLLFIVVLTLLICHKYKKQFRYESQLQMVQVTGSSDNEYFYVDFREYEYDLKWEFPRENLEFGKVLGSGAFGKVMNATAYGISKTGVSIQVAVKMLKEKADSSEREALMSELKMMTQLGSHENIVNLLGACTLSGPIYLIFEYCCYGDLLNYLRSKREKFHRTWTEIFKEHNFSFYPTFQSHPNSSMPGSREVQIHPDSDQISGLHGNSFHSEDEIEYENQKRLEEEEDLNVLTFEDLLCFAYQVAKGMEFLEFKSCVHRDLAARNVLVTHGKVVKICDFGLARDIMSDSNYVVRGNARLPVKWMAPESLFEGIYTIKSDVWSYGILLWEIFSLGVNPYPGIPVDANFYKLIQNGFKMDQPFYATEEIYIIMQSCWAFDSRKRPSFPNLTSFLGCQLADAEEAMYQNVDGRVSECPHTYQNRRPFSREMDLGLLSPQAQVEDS
value-kind: pIC50
Scale note: pIC50 = -log10(concentration in M).

>  <smiles-input>
Cc1nc(Nc2c[nH]nc2C(=O)Nc2ccc(CN3CCN(C)CC3)cc2)c2cc(C(C)C)sc2n1

>  <readout-number>
9.14

$$$$
>  <smiles-input>
Cc1nc(Nc2c[nH]nc2C(=O)Nc2ccc(CN3CCOCC3)cc2)c2ccsc2n1

>  <readout-number>
8.44

$$$$
>  <smiles-input>
Cc1nc2c(c(Nc3c[nH]nc3C(=O)Nc3ccc(N4CCNCC4)cc3)n1)CCCC2

>  <readout-number>
9.18

$$$$
>  <smiles-input>
O=C(Nc1ccc(N2CCNCC2)cc1)c1n[nH]cc1Nc1nc(Cl)nc2sccc12

>  <readout-number>
9.33

$$$$
>  <smiles-input>
CCc1nc(Nc2c[nH]nc2C(=O)Nc2ccc(N3CCNCC3)cc2)c2ccsc2n1

>  <readout-number>
8.47

$$$$

pIC50 recorded for this compound, `Cc1nc(Nc2c[nH]nc2C(=O)Nc2ccc(N3CCNCC3)cc2)c2ccsc2n1` , is 9.21

pIC50 recorded for this compound, `CC(C)(C)c1nc(Nc2c[nH]nc2C(=O)Nc2ccc(N3CCNCC3)cc2)c2ccsc2n1` , is 7.69

pIC50 recorded for this compound, `O=C(Nc1ccc(CN2CCOCC2)cc1)c1n[nH]cc1Nc1nc(C2CC2)nc2sccc12` , is 7.78

pIC50 recorded for this compound, `Cc1nc(Nc2c[nH]nc2C(=O)Nc2ccc(CN3CCOCC3)cc2)c2cc(C(C)C)sc2n1` , is 9.18

pIC50 recorded for this compound, `CN1CCN(Cc2ccc(NC(=O)c3n[nH]cc3Nc3ncnc4sccc34)cc2)CC1` , is 9.22

pIC50 recorded for this compound, `O=C(Nc1ccc(N2CCNCC2)cc1)c1n[nH]cc1Nc1nc(C2CC2)nc2sccc12` , is 8.60

pIC50 recorded for this compound, `Cc1nc(Nc2c[nH]nc2C(=O)Nc2ccc(CN3CCN(C)CC3)cc2)c2ccsc2n1` , is 9.19
